biological target: T1, RPtag(small) Nd2, Cd4 (Thermoanaerobacter tengcongensis); test: fluorescence anisotropy; 2 nM rhodamine Nd2Cd4, unlabeled RPtag large variant titrated; bar of Ka = 1/Kd, right axis
T1 peptide: RhodamineB-KIPNFIPAELKLITK
No end group written: not given here. *: point of attachment. RhodamineB = CCN(CC)c1ccc2c(-c3ccccc3C(=O)*)c3ccc(=[N+](CC)CC)cc-3oc2c1
Reported Metric: binding result

h122w (designed binder, also called RPtag(large) H122W) single chain: MGSSCHHHHHHSQDPNSSSMKEGKTIGLVISTLNNPFFVTLKNGAEEKAKELGYKIIVEDSQNDSSKELSNVEDLIQQKVDVLLINPVDSDAVVTAIKEANSKNIPVITIDRSANGGDVVSWIASDNVKGGEMAAEFIAKALKGKGNVVELEGIPGASAARDRGKGFDEAIAKYPDIKIVAKQAADFDRSKGLSVMENILQAQPKIDAVFAQNDEMALGAIKAIEAANRQGIIVVGFDGTEDALKAIKEGKMAATIAQQPALMGSLGVEMADKYLK; binds
